# TARGET_SYSTEM: Alpha-2C adrenergic receptor (Homo sapiens)
# MEASUREMENT_PROTOCOL: compounds altering alpha2C-coupled GIRK flux – cell-based, HEK293 alpha2C/GIRK1/2, thallium flux, primary screen (AID 624);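 also: slope of fluorescence ratio to pre-addition baseline per second over 15 to 24 s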
# COND: thallium flux BTC fluorescence, at 10 µM, actives lie on both sides
Threshold 0.006: slope strictly smaller gives satisfied, otherwise not satisfied.

Hello, I'm reviewing records and need to know if slope of COc1cc(C2C(C#N)=C(C)NC3=C2C(=O)CC(C)(C)C3)ccc1O (stereo not drawn) is below 0.006. Could you check?
satisfied

Dear reviewer, please state whether CCOC(=O)Cn1c(CN2CCOCC2)nc2c1c(=O)[nH]c(=O)n2C has slope strictly beneath 0.006.
satisfied

slope under 0.006? Item: Cc1ccc(S(=O)(=O)C(C#N)c2nc3ccccc3nc2OC(C)C)cc1 (stereo not drawn)
satisfied

Check if slope falls below 0.006 for CC(C)(C)NC(=O)CN(Cc1cccs1)C(=O)c1csnn1 .
satisfied

Would you kindly verify if slope of O=C(OCC#CCSc1nnc(-c2ccncc2)o1)c1cccs1 is strictly less than 0.006?
not satisfied

New cases:
# strict comparison: is reported slope < 0.006? input = Cn1c(=O)c2c(nc(CN3CCN(c4ccccc4F)CC3)n2CCN2CCOCC2)n(C)c1=O
not satisfied

hey, is slope for Cc1cc(C)c2c(n1)nn1c(NCCCN3CCOCC3)cc(C)nc21 lower than 0.006 or not?
satisfied

slope under 0.006? Item: O=C1c2ccccc2C(Nc2ccc3c(c2)OCCO3)N1Cc1ccco1 (stereo not drawn)
satisfied

In the record for Cc1ccc2c(c1)-c1c(cnn1CC(=O)NC(C)CCc1ccco1)CO2 (stereo not drawn) , is slope less than 0.006?
not satisfied

Dear reviewer, please state whether Cc1nc2nc(-c3cccnc3)nn2c(C)c1Cl has slope strictly beneath 0.006.
satisfied

I wonder whether Cc1nn(-c2ccccc2)c2[nH]c(C(F)(F)F)cc(=O)c12 has slope below 0.006. Can you tell?
not satisfied

Item CCc1n[nH]c2c1C(=O)CC(C)(C)C2 : slope beneath 0.006, strictly?
satisfied
